Molecular target: human MDM2 (GST-hMDM2 1-188), interaction with biotinylated-p53 (1-83) (Homo sapiens, UniProt Q00987)
Construct: Amino acid residues 1-188 of human MDM2 were expressed
Sequence (Q00987 1-188): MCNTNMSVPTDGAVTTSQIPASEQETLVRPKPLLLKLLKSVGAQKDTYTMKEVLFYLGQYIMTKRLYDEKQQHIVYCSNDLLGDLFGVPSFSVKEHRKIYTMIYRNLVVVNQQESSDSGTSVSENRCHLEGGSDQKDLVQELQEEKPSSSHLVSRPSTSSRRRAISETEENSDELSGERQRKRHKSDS
Assay: improved HTRF assay (HTRF2 assay), inhibition of HDM2-p53 interaction
Settings: 0.2 nM GST-hMDM2, 0.5 nM biotinylated-p53, 100 mM KF
property-label: pIC50
Answers are plain numbers, as −log10 of the molar value.

1. O=C1[C@@H](Cc2ncn[nH]2)O[C@H](c2cccc(Cl)c2)[C@@H](c2ccc(Cl)cc2)N1[C@H](CN(c1ccccc1F)S(=O)(=O)C1CC1)C1CC1 (single isomer, unassigned) [Example 396] : 8.70
2. CC(C)(C)S(=O)(=O)C[C@H](C1CC1)N1C(=O)[C@@H](CC#N)O[C@H](c2cccc(Cl)c2)[C@H]1c1ccc(Cl)cc1 (single isomer, unassigned) [Example 387] : 7.21
3. O=C(O)C[C@@]1(CC(F)(F)F)O[C@H](c2cccc(Cl)c2)[C@@H](c2ccc(Cl)cc2)N([C@H](CN(c2ccccc2F)S(=O)(=O)C2CC2)C2CC2)C1=O (single isomer, unassigned) [Example 333] : 6.70

// input: 2 molecules below; output: pIC50 for each
1. CC[C@@H](CCS(=O)(=O)C(C)(C)C)N1C(=O)[C@@H](CC(=O)O)O[C@H](c2cccc(Cl)c2)[C@H]1c1ccc(Cl)cc1 (single isomer, unassigned) [Example 221]
2. O=C(C[C@H]1O[C@H](c2cccc(Cl)c2)[C@@H](c2ccc(Cl)cc2)N([C@H](CN(c2ccccc2F)S(=O)(=O)C2CC2)C2CC2)C1=O)Nc1ccccn1 (single isomer, unassigned) [Example 369]

[7.92, 8.10]

// input: 3 molecules below; output: pIC50 for each
1. CC(C)(C)NS(=O)(=O)C[C@H](C1CC1)N1C(=O)[C@@H](CC(=O)O)O[C@H](c2cccc(Cl)c2)[C@H]1c1ccc(Cl)cc1 (single isomer, unassigned) [Example 293]
2. NC(=O)C[C@H]1O[C@H](c2cccc(Cl)c2)[C@@H](c2ccc(Cl)cc2)N([C@H](CN(c2ccccc2)S(=O)(=O)C2CC2)C2CC2)C1=O (single isomer, unassigned) [Example 360]
3. CC[C@@H](CS(=O)(=O)C(C)(C)C)N1C(=O)[C@@H](Cc2nnnn2C)O[C@H](c2cccc(Cl)c2)[C@H]1c1ccc(Cl)cc1 (single isomer, unassigned) [Example 400]

[9.00, 9.00, 7.43]

// input: 6 molecules below; output: pIC50 for each
1. CC[C@@H](CS(=O)(=O)C(C)(C)CC)N1C(=O)[C@H](CC(=O)O)O[C@H](c2cccc(Cl)c2)[C@H]1c1ccc(Cl)cc1 (single isomer, unassigned) [Example 123]
2. CC(C)S(=O)(=O)[C@H]1CCC[C@@H]1N1C(=O)[C@@H](CC(=O)O)O[C@H](c2cccc(Cl)c2)[C@H]1c1ccc(Cl)cc1 (single isomer, unassigned) [Example 421]
3. O=C(O)C[C@H]1O[C@H](c2cccc(Cl)c2)[C@@H](c2ccc(Cl)cc2)N([C@H](CS(=O)(=O)N2CCc3cc(F)ccc32)C2CC2)C1=O (single isomer, unassigned) [Example 299]
4. CC(C)(C)S(=O)(=O)C[C@H](C1CC1)N1C(=O)[C@@H](Cc2cnn[nH]2)O[C@H](c2cccc(Cl)c2)[C@H]1c1ccc(Cl)cc1 (single isomer, unassigned) [Example 386]
5. CC(C)(C)S(=O)(=O)C[C@H](C1CC1)N1C(=O)[C@@H](CC(=O)Nc2ccccc2F)O[C@H](c2cccc(Cl)c2)[C@H]1c1ccc(Cl)cc1 (single isomer, unassigned) [Example 352]
6. CC[C@@H](CS(=O)(=O)C(C)(C)C)N1C(=O)[C@@H](CC(=O)CO)O[C@H](c2cccc(Cl)c2)[C@H]1c1ccc(Cl)cc1 (single isomer, unassigned) [Example 245]

1. 9.00
2. 4.87
3. 7.96
4. 7.89
5. 7.60
6. 8.05

Provide pIC50 value for the following molecule: CC(C)[C@@H](CS(=O)(=O)C(C)(C)C)N1C(=O)[C@@H](CC(=O)O)O[C@H](c2cccc(Cl)c2)[C@H]1c1ccc(Cl)c(F)c1 (single isomer, unassigned) [Example 311] 8.30

###

Molecular target: human MDM2 (GST-hMDM2 1-188), interaction with biotinylated-p53 (1-83) (Homo sapiens, UniProt Q00987)
Construct: Amino acid residues 1-188 of human MDM2 were expressed
Assay: improved HTRF assay (HTRF2 assay), inhibition of HDM2-p53 interaction
Conditions: 0.2 nM GST-hMDM2, 0.5 nM biotinylated-p53, 100 mM KF
Can you tell me IC50 for the items I'm about to list?
Give bare numbers, in nM.

Solved cases (3 shown):
1) C[C@@H](CS(=O)(=O)C(C)(C)C)N1C(=O)[C@@H](CC(=O)NO)O[C@H](c2cccc(Cl)c2)[C@H]1c1ccc(Cl)cc1 (single isomer, unassigned) : 7
2) CC(C)(C)S(=O)(=O)C[C@H](C1CC1)N1C(=O)[C@@H](Cc2ncn[nH]2)O[C@H](c2cccc(Cl)c2)[C@H]1c1ccc(Cl)cc1 (single isomer, unassigned) [Example 390] : 11
3) CC[C@@H](CS(=O)(=O)C(C)(C)C)N1C(=O)[C@@H](CNC(=O)OC(C)(C)C)O[C@H](c2cccc(Cl)c2)[C@H]1c1ccc(Cl)cc1 : 86

Let us move to another entry and its IC50.
Provide IC50 value for the following compound: CC(C)[C@@H](CN(c1ccccc1F)S(=O)(=O)C(C)(C)C)N1C(=O)[C@@H](CC(=O)O)O[C@H](c2cccc(Cl)c2)[C@H]1c1ccc(Cl)cc1 (single isomer, unassigned) [Example 200] 1

###

Target: human MDM2 (GST-hMDM2 1-188), interaction with biotinylated-p53 (1-83) (Homo sapiens, UniProt Q00987)
Construct: Amino acid residues 1-188 of human MDM2 were expressed
Assay: improved HTRF assay (HTRF2 assay), inhibition of HDM2-p53 interaction
Settings: 0.2 nM GST-hMDM2, 0.5 nM biotinylated-p53, 100 mM KF
property-label: IC50 (nM)
Answers are plain numbers, in nM.

Solved cases (2 shown):
1) CC(C)(C)S(=O)(=O)C[C@H](C1CC1)N1C(=O)[C@@H](CC(=O)NCC#N)O[C@H](c2cccc(Cl)c2)[C@H]1c1ccc(Cl)cc1 (single isomer, unassigned) [Example 348] : 5
2) CC[C@@H](CS(=O)(=O)C(C)(C)C)N1C(=O)[C@H](CC(=O)OC)O[C@H](c2cccc(Cl)c2)[C@H]1c1ccc(Cl)cc1 : 21

Let us move to another entry and its IC50.
Provide IC50 value for the following molecule: CC[C@@H](CS(=O)(=O)CCN(C)C)N1C(=O)[C@H](CC(=O)O)O[C@H](c2cccc(Cl)c2)[C@H]1c1ccc(Cl)cc1 (single isomer, unassigned) 8

###

Can you tell me IC50 for the items I'm about to list?
Molecular target: human MDM2 (GST-hMDM2 1-188), interaction with biotinylated-p53 (1-83) (Homo sapiens, UniProt Q00987)
Construct: Amino acid residues 1-188 of human MDM2 were expressed
Assay: improved HTRF assay (HTRF2 assay), inhibition of HDM2-p53 interaction
Details: 0.2 nM GST-hMDM2, 0.5 nM biotinylated-p53, 100 mM KF
Protocol: Residues 1-83 of human p53 were expressed as an amino-terminal AviTag™-TrxA-6xHis fusion protein (biotinylated p53) in E. coli. Each protein was purified from cell paste by affinity chromatography. Specifically, 10 uL of GST-hMDM2 was incubated with 10 ul of diluted compound (various concentrations, serially diluted) in 10% DMSO for 20 minutes at room temperature. […] Time-resolved fluorescence readings were measured on a microplate multilabel reader. […]

1. CC[C@@H](CS(=O)(=O)C(C)(C)C)N1C(=O)[C@H](CCO)O[C@H](c2cccc(Cl)c2)[C@H]1c1ccc(Cl)cc1 [Example 151] : 22 nM

// input: 2 molecules below; output: IC50 for each
1. CC(C)(C)S(=O)(=O)C[C@H](C1CC1)N1C(=O)[C@@H](CC(=O)O)O[C@H](c2ccc(Cl)c(Cl)c2)[C@H]1c1ccc(Cl)cc1 (single isomer, unassigned) [Example 318]
2. O=C(O)C[C@H]1O[C@H](c2cccc(Cl)c2)[C@@H](c2ccc(Cl)cc2)N([C@H](CN(c2ncccc2F)S(=O)(=O)C2CC2)C2CC2)C1=O (single isomer, unassigned) [Example 189]

["8 nM", "< 1 nM"]

###

Target: human MDM2 (GST-hMDM2 1-188), interaction with biotinylated-p53 (1-83) (Homo sapiens)
Construct: Amino acid residues 1-188 of human MDM2 were expressed
Test: improved HTRF assay (HTRF2 assay), inhibition of HDM2-p53 interaction
Details: 0.2 nM GST-hMDM2, 0.5 nM biotinylated-p53, 100 mM KF
Can you tell me IC50 for the items I'm about to list?

Solved cases (3 shown):
1. CC[C@@H](CS(=O)(=O)C1CCOCC1)N1C(=O)[C@@H](CC(=O)O)O[C@H](c2cccc(Cl)c2)[C@H]1c1ccc(Cl)cc1 (single isomer, unassigned) [Example 186] : 2 nM
2. O=C(O)C[C@H]1O[C@H](c2cccc(Cl)c2)[C@@H](c2ccc(Cl)cc2)N([C@H](CS(=O)(=O)N2CCOCC2)C2CC2)C1=O (single isomer, unassigned) [Example 302] : < 1 nM
3. CC(C)(C)S(=O)(=O)C[C@H](C1CC1)N1C(=O)[C@H](Cc2ccno2)O[C@H](c2cccc(Cl)c2)[C@H]1c1ccc(Cl)cc1 [Example 384] : 13 nM

// input: 2 molecules below; output: IC50 for each
1. CC(C)S(=O)(=O)C[C@H](C1CC1)N1C(=O)[C@@H](CC(=O)O)O[C@H](c2cccc(Cl)c2)[C@H]1c1ccc(Cl)cc1 (single isomer, unassigned) [Example 156]
2. NC(=O)C[C@H]1O[C@H](c2cccc(Cl)c2)[C@@H](c2ccc(Cl)cc2)N([C@H](CN(c2c(F)cccc2F)S(=O)(=O)C2CC2)C2CC2)C1=O (single isomer, unassigned) [Example 359]

1: 1 nM; 2: < 1 nM
